assay_system: HDAC6 (Homo sapiens (Human))
Sequence (Q9UBN7 whole entry): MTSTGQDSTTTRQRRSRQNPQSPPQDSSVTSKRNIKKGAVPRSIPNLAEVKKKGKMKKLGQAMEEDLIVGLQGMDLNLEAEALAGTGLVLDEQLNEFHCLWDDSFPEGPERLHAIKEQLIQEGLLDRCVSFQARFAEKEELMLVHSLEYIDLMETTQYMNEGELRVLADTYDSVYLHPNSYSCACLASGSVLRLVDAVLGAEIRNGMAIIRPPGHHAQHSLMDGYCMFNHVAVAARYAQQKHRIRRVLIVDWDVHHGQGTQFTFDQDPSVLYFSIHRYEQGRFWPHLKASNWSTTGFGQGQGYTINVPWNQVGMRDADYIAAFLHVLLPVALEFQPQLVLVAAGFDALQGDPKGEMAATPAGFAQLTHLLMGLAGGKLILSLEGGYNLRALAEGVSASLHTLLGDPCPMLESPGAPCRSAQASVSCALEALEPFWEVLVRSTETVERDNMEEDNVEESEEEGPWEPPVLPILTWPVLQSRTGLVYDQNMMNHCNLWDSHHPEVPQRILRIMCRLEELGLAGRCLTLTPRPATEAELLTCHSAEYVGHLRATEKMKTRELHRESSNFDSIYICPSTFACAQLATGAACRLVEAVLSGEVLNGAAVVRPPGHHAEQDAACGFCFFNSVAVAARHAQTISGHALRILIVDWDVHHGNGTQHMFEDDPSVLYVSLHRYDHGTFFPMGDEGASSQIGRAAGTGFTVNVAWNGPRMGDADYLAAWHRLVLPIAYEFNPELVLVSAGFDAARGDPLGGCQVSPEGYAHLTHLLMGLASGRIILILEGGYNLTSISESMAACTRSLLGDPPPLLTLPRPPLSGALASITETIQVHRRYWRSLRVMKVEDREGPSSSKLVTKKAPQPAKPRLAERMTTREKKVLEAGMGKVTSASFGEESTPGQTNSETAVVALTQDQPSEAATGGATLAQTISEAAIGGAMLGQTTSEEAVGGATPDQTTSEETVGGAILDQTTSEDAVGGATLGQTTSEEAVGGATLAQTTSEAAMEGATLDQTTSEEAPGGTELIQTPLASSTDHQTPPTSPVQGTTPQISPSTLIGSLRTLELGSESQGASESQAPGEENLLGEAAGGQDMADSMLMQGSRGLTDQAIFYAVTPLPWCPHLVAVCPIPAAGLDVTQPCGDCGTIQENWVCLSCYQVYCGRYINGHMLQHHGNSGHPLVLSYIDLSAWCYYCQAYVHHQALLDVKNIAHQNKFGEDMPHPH
experimental_protocol: HDAC6 in vitro enzymatic assay (fluorescence)
Assay type: biochemical
condition_summary: Table 4 selectivity profiling; read-out: IC50 (nM) HDAC6
parameter_measured: IC50 (nM)
One number for each entry, in nM.

Some solved cases for reference:
O=C(NO)c1ccc2oc(-c3ccc(OC(F)(F)F)cc3)nc2c1 38
CC(C)c1ccc(-c2cc3cc(C(=O)NO)ccc3s2)cc1 26

Can you give me IC50 for all of these, one by one?
1. CC(C)c1ccc(-c2cc3ccc(C(=O)NO)cc3s2)cc1
2. CC(C)(C)c1ccc(-c2nc3cc(C(=O)NO)ccc3o2)cc1
3. COc1cccc(-c2cc3ccc(C(=O)NO)cc3o2)c1

14
5
4
